- measured.on: T1, Human IL-13 with an Fc-tag (human, UniProt P35225 35-146, limits assumed)
- T1 construct: Immobilized on CM5 chip (about 5000 RU); also called Interleukin-13; not shown: Fc-tag
- assay.details: SPR, BIAcore 8K plus, human IL-13-Fc immobilized on CM5, peptide as analyte, 25 C
pKd: −log10 of the molar value. Square brackets hold non-standard residues; d marks the D form.
attribute.measured: pKd

I: cyclo(E[dT][dV]W[dP][dP]) (SMILES CC(C)[C@H]1NC(=O)[C@@H]([C@H](C)O)NC(=O)[C@H](CCC(=O)O)NC(=O)[C@H]2CCCN2C(=O)[C@H]2CCCN2C(=O)[C@H](Cc2c[nH]c3ccccc23)NC1=O) [Compound 3]
II: cyclo(WVRE[dP][dP]) (SMILES CC(C)[C@@H]1NC(=O)[C@H](Cc2c[nH]c3ccccc23)NC(=O)[C@H]2CCCN2C(=O)[C@H]2CCCN2C(=O)[C@H](CCC(=O)O)NC(=O)[C@H](CCCNC(=N)N)NC1=O) [Compound 5]
III: cyclo(RDYC[dP][dW][dP]) (SMILES N=C(N)NCCC[C@@H]1NC(=O)[C@H]2CCCN2C(=O)[C@@H](Cc2c[nH]c3ccccc23)NC(=O)[C@H]2CCCN2C(=O)[C@H](CS)NC(=O)[C@H](Cc2ccc(O)cc2)NC(=O)[C@H](CC(=O)O)NC1=O) [Compound 10]
IV: cyclo(TR[dF]P[dL][dP]) (SMILES CC(C)C[C@H]1NC(=O)[C@@H]2CCCN2C(=O)[C@@H](Cc2ccccc2)NC(=O)[C@H](CCCNC(=N)N)NC(=O)[C@H]([C@@H](C)O)NC(=O)[C@H]2CCCN2C1=O) [Compound 7]
Q. Please list these in order of increasing pKd. Thank you! Output spec: labels arranged per the requested ranking.
A. III, IV, II, I
